All values here come from patent US20220117949A1.

experiment: First in human trial Part 1 (SAD): plasma pharmacokinetics; conditions: human, in vivo, po
measurement_name: Tmax

Field request: Tmax | item: N[C@@H](CC(=O)O)Cn1nnc(-c2ccc(Oc3ncc(Cl)cc3F)cc2)n1 [compound of example 1]
1 to 1.5 h

----------
assay: clinical; details: human, in vivo, 30 mg
measurement_name: Kp at 24 h

Field request: Kp at 24 h | item: `N[C@@H](CC(=O)O)Cn1nnc(-c2ccc(Oc3ncc(Cl)cc3F)cc2)n1`
0.14

----------
test: clinical; settings: human, in vivo, 30 mg
measurement_name: concentration at 24 h (ng/mL)
Field: numeric (ng/mL). Do not append units.

Field request: concentration at 24 h | item: `N[C@@H](CC(=O)O)Cn1nnc(-c2ccc(Oc3ncc(Cl)cc3F)cc2)n1`
4.67

----------
experiment: First in human trial Part 1 (SAD): plasma pharmacokinetics; settings: human, in vivo, po
measurement_name: half-life

Field request: half-life | item: `N[C@@H](CC(=O)O)Cn1nnc(-c2ccc(Oc3ncc(Cl)cc3F)cc2)n1`
10.2 to 21.4 days
